Tested on: SR leukemia
Assay: NCI tumour cell line growth inhibition, 48 h
What TGI was measured for each of the following?

Check out these entries, answers already filled in.
[
  {
    "compound": "COc1cc(/C=C/C(=O)c2ccc(C)cc2)ccc1Oc1nc(NCCO)nc(N2CCOCC2)n1",
    "TGI": "7.16 µM"
  },
  {
    "compound": "COc1ccc([C@@H]2[C@@H](O)C(=O)N2c2cc(OC)c(OC)c(OC)c2)cc1F",
    "TGI": "> 100 µM"
  },
  {
    "compound": "C[C@]12CC[C@H]3[C@@H](CC=C4C[C@@H](O)CC[C@@]43C)[C@@H]1CC[C@@H]2[C@](C)(O)CCc1cccnc1",
    "TGI": "> 100 µM"
  }
]

Consider the record given below.
[ask] Specify measured TGI for CCCC(=O)NC(c1cccnc1)c1ccc2c(C)ccnc2c1O (centres undefined) .
[reply] > 100 µM

* * *

Test system: HT29 colon
Experiment: NCI tumour cell line growth inhibition, 48 h; in the data active means GI50 below about 0.43 µM; inactive means the rest
Hi there, use one of these labels in your reply, thanks! 1 = active, -1 = inactive

[ask] What did the test return for CCCC(=O)NC(c1cccnc1)c1ccc2c(C)ccnc2c1O (centres undefined) ?
[reply] -1

* * *

System: SN12C renal
Experiment: NCI tumour cell line growth inhibition, 48 h
measured quantity: TGI (µM)
Numbers only, in µM.

[
  {
    "mol": "CC(=O)/C(N=Nc1ccc2oc(=O)ccc2c1)=C(\\C)O",
    "measured target": "SN12C renal",
    "unit annotation": "µM",
    "TGI": 14.7
  },
  {
    "mol": "CNC(=O)c1cc(N2CCc3cc(NC(=O)Nc4ccc(N5CCN(C)CC5)c(C(F)(F)F)c4)ccc32)ccn1",
    "measured target": "SN12C renal",
    "unit annotation": "µM",
    "TGI": 8.1
  }
]

Attention now shifts to the item below.
[ask] Identify the reported TGI for the following entry. `CC1=C(C)C(=O)C(Nc2cccc(C(F)(F)F)c2)=C(Cl)C1=O`
[reply] 23.4

* * *

Test system: CCRF-CEM leukemia
Assay: NCI tumour cell line growth inhibition, 48 h
measured quantity: TGI

Below are worked cases with known answers.
[
  {
    "molecule": "CCCC(=O)NC(c1cccnc1)c1ccc2c(C)ccnc2c1O (stereo not given)",
    "TGI": "> 100 µM"
  },
  {
    "molecule": "COc1cc(/C=C/C(=O)c2ccc(C)cc2)ccc1Oc1nc(NCCO)nc(N2CCOCC2)n1",
    "TGI": "> 100 µM"
  },
  {
    "molecule": "CC1=C(C)C(=O)C(Nc2cccc(C(F)(F)F)c2)=C(Cl)C1=O",
    "TGI": "> 100 µM"
  },
  {
    "molecule": "CNC(=O)c1cc(N2CCc3cc(NC(=O)Nc4ccc(N5CCN(C)CC5)c(C(F)(F)F)c4)ccc32)ccn1",
    "TGI": "21.6 µM"
  }
]

Please turn your attention to the following entry.
[ask] Kindly indicate its recorded TGI. Item: `COc1ccc([C@@H]2[C@@H](O)C(=O)N2c2cc(OC)c(OC)c(OC)c2)cc1F`
[reply] > 100 µM

* * *

I'd be grateful if you could share measured GI50 for these entries.
Tested on: HS 578T breast
Assay: NCI tumour cell line growth inhibition, 48 h

[
  {
    "mol": "COc1ccc([C@@H]2[C@@H](O)C(=O)N2c2cc(OC)c(OC)c(OC)c2)cc1F",
    "GI50": "0.0576 µM"
  },
  {
    "mol": "COc1cc(/C=C/C(=O)c2ccc(C)cc2)ccc1Oc1nc(NCCO)nc(N2CCOCC2)n1",
    "GI50": "4.6 µM"
  },
  {
    "mol": "CC1=C2C(=C[C@@](C)(COC(=O)c3ccc(S(=O)(=O)F)cc3)[C@@H]2OC(=O)c2ccc(S(=O)(=O)F)cc2)C(=O)[C@](C)(O)C12CC2",
    "GI50": "2.37 µM"
  }
]

Please examine the following record next.
[ask] Identify the reported GI50 for the following entry. `CC1=C(C)C(=O)C(Nc2cccc(C(F)(F)F)c2)=C(Cl)C1=O`
[reply] 6 µM
